Data credit: ChEMBL document CHEMBL4251726

Task for the reader: assign each of the following compounds its reported IC50.
- SYSTEM: Serine/threonine-protein kinase ATR (Homo sapiens)
- Sequence (Q13535 whole entry, the tested form may be a part): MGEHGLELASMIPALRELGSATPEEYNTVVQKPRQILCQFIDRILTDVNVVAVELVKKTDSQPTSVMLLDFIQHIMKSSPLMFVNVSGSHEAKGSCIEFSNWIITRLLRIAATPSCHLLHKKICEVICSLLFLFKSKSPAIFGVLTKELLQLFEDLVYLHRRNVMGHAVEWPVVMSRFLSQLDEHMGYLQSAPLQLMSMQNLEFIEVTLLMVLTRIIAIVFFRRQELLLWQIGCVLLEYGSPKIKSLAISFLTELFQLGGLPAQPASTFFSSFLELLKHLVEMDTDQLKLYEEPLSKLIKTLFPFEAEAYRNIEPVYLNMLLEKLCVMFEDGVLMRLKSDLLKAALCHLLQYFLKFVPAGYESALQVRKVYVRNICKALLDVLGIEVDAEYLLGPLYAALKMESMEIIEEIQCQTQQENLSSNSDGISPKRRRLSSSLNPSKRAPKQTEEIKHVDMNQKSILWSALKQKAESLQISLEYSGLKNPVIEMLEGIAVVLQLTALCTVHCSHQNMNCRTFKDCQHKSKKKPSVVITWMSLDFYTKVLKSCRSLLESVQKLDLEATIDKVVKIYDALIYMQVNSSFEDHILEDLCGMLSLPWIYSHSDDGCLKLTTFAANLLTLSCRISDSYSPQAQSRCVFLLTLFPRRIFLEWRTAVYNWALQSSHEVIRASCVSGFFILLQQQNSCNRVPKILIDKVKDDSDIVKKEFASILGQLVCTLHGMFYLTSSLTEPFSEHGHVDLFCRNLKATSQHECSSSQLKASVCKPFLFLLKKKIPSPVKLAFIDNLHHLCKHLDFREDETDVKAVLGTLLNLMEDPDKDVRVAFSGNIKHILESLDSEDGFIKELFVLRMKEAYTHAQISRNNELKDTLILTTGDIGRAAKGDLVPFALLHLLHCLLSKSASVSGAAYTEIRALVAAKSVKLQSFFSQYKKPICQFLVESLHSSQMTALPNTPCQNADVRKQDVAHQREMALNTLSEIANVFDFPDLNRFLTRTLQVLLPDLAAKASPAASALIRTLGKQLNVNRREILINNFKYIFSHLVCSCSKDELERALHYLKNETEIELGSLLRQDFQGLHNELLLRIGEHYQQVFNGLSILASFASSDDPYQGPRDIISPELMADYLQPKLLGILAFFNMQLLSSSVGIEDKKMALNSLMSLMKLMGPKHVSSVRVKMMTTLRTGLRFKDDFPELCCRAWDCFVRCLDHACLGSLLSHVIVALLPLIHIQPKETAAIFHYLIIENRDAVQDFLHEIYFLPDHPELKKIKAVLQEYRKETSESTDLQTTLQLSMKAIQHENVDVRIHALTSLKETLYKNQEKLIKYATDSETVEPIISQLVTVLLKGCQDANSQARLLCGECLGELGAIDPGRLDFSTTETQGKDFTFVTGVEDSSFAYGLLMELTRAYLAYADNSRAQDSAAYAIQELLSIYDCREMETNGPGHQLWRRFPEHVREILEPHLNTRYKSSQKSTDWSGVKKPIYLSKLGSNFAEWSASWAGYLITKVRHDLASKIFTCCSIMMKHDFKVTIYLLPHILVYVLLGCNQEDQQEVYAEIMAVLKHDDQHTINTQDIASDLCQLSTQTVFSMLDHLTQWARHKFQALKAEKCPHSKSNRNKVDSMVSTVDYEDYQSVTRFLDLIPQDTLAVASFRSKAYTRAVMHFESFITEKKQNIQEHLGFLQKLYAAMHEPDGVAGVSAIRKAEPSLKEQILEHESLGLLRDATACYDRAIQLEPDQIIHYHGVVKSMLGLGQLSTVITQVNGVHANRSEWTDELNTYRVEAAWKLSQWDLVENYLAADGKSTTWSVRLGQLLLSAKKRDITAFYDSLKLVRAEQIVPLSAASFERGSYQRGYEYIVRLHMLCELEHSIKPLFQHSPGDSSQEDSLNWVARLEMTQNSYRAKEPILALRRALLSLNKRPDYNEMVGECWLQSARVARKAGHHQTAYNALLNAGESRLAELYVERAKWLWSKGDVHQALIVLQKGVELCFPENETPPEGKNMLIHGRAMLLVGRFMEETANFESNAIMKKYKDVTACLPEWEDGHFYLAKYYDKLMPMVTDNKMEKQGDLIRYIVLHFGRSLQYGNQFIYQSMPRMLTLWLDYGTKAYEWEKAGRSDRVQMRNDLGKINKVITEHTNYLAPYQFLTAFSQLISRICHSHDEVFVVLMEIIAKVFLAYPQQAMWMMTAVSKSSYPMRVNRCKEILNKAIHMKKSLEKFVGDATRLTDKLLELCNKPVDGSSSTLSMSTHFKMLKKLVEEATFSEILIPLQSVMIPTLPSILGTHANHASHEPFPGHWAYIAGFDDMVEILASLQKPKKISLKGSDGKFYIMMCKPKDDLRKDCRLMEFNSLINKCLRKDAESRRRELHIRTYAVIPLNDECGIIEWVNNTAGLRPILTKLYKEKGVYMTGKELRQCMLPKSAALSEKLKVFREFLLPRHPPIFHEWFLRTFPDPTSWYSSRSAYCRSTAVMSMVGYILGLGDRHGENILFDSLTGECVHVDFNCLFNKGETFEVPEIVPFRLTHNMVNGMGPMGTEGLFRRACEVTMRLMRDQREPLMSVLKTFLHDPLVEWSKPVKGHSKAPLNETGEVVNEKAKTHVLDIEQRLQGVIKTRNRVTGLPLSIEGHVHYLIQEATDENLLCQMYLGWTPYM
- ASSAY_OVERVIEW: Inhibition of ATR in human U2OS cells harboring ER-LBD fused TopBPI activation domain (978 to 1286 residues) assessed as reduction in 4-OHT-mediated nuclear translocation of TopBPI fragment by measuring gammaH2AX level after 24 hrs by Alexa Fluor 488 staining based fluorescence assay
- Format: cell-based

INSERT INTO assay_data (smiles_entry, measurement) VALUES
  ('CNc1cnc2[nH]ccc2c1-c1nc2c(c(C(C)(C)O)n1)OC[C@@H]1COC[C@@H](C)N21', '10 to 100 nM');

# return IC50 for each item in the list
1. CNc1nccn1-c1nc2c(c(C(C)(C)S(C)(=O)=O)n1)OC[C@@H]1COC[C@@H](C)N21
2. CNc1cnc2[nH]ccc2c1-c1nc2c(c(C(C)(C)S(C)(=O)=O)n1)OC[C@@H]1COC[C@@H](C)N21
3. CNc1nc2ccccc2n1-c1nc2c(c(C(C)(C)S(C)(=O)=O)n1)OC[C@@H]1COC[C@@H](C)N21

Result string:
1: 100 to 1000 nM; 2: 10 to 100 nM; 3: < 10 nM
